// data source = patent US20080267942A1

Target: bovine beta-2 adrenoceptor (Bos taurus, UniProt Q28044)
Sequence (Q28044 whole entry): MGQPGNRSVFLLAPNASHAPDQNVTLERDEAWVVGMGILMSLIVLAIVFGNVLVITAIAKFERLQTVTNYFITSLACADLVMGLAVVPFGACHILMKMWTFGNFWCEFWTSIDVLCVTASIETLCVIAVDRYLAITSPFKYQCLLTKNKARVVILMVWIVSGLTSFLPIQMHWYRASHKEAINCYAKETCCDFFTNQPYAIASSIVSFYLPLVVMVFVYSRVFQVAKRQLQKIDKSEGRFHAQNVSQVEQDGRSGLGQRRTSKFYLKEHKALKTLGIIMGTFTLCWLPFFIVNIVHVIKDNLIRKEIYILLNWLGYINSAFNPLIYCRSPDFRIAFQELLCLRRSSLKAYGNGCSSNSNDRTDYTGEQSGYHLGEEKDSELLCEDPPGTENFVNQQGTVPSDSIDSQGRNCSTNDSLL
Assay: cAMP assay in CHO cells transfected with the bovine beta-2 adrenoceptor (DiscoveRx Hit Hunter cAMP II)
Conditions: CHO cells transfected with bovine beta-2 adrenoceptor, 30 minutes incubation with compound
Method: CHO cells transfected with the bovine or porcine beta-2 adrenceptors were maintained in culture in DMEM/HAMS F12+10% FBS+2 mM glutamine+500 μg/ml geneticin (for the porcine receptor the medium was supplement with 1.5 mM HEPES) at 37° C. with a 5% CO2 atmosphere. […] Duplicate samples were run for each experimental compound and the data generated was analysed using EC50 analysis software in Graphpad Prism.
MEASURED PROPERTY: pEC50
In plain terms, pEC50 is the concentration in mol/L turned into minus its base-10 logarithm.

Example cases with answers are listed next.
1) Cc1nn(C)c(C)c1CCC(C)N[C@@H]1CCn2c(=O)[nH]c3cccc(c32)[C@H]1O (single isomer, unassigned) [Example 9b]: 8.38
2) Cc1nc(C)c(CCC(C)N[C@@H]2CCn3c(=O)[nH]c4cccc(c43)[C@H]2O)s1 (single isomer, unassigned) [Example 23b]: 7.92
3) Cc1c(CC[C@@H](C)N[C@@H]2CCn3c(=O)[nH]c4cccc(c43)[C@H]2O)cnn1C [Example 53]: 8.70

q: Endpoint output: pEC50 of Cc1ncsc1CCC(C)N[C@@H]1CCn2c(=O)[nH]c3cccc(c32)[C@H]1O (single isomer, unassigned) [Example 34b] . Value?
a: 8.85
